- System: OVCAR-8 ovarian
- assayMethodText: NCI tumour cell line growth inhibition, 48 h; in the data active means GI50 below about 0.43 µM; inactive means the rest
Result category, one only: 1.0 for active, 0.0 for inactive

smilesRecord: COc1cc(C(=O)/C=C/c2c(C(F)(F)F)nc3ccccn23)cc(OC)c1OC
testTarget: OVCAR-8 ovarian
cat: 0.0
//
smilesRecord: Clc1nc(Cl)c2ncn(CCOCCn3cnc4c(Cl)nc(Cl)nc43)c2n1
testTarget: OVCAR-8 ovarian
cat: 1.0

Proceed to the following item.
Could you check what this test reported for O=S(=O)(NCCCNc1cc(-c2cn(-c3ccccc3)nc2-c2cccc(O)c2)ccn1)c1ccc(F)cc1 ?
0.0

* * *

Each entry below carries its reported TGI.
- Tested on: SK-MEL-5 melanoma
- assayMethodText: NCI tumour cell line growth inhibition, 48 h

Some molecules with known TGI results, for comparison:
molecule: Nc1nc2c(ncn2CCCC(c2ccccc2)P(=O)(O)O)c(=O)[nH]1 (configuration not stated)
TGI: > 100 µM
//
molecule: COC1=C2CC(C)CC(OC)C(OC(=O)CCCN)C(C)/C=C(\C)C(OC(N)=O)C(OC)/C=C\C=C(/C)C(=O)NC(=CC1=O)C2=O (configuration not stated)
TGI: 22.4 µM
//
molecule: CN1CCCC1c1cccnc1.O=C(O)c1ccccc1O.O=C([O-])c1ccccc1[OH2+].O=C([O-])c1ccccc1[OH2+].[Mn+2] (configuration not stated)
TGI: > 100 µM
//
molecule: COc1ccc(-c2[nH]c3ccccc3c2/C=C(\C#N)S(=O)(=O)c2ccccc2)cc1
TGI: 2.73 µM
//
molecule: CCCCCCCCCCCCC(O)C(=O)O (configuration not stated)
TGI: > 100 µM
//
molecule: CN(CCNC(=S)c1cn(C)c2c1ccc1ccccc12)CCNC(=S)c1cn(C)c2c1ccc1ccccc12
TGI: > 100 µM

Quick one: TGI for C[P+]1(c2ccccc2)CCCCC1 ?
> 100 µM

Fill in the blank: the reported TGI of c1ccc(-c2csc3ncn4cnnc4c23)cc1 is ____.
> 100 µM

Requested field: TGI. Item: O=C(Cc1ccccc1)C(c1ccccc1)S(=O)(=O)c1ccccc1 (configuration not stated)
> 100 µM

Recorded TGI for CCc1ccccc1NC(=O)CC1NC(=O)CS1 (configuration not stated) , please?
> 100 µM

Request the reported TGI associated with C=CC(=O)N[C@@H](/C=C/C(=O)OCC)Cc1ccc(-c2cc(Cl)cc(Cl)c2)cc1
17.5 µM

* * *

- System: OVCAR-8 ovarian
- assayMethodText: NCI tumour cell line growth inhibition, 48 h
// reported TGI for each item listed

Answered cases to consult:
compound: Cn1nc(-c2ccccc2)c(C(=O)/C=C/c2ccc(Cl)cc2)c(N2CCOCC2)c1=O
TGI: 26.2 µM
//
compound: CC1CCC2C(CN(CC3=C(C(F)(F)F)OC4OC5(C)CCC6C(C)CCC3C46OO5)CC3=C(C(F)(F)F)OC4OC5(C)CCC6C(C)CCC3C46OO5)=C(C(F)(F)F)OC3OC4(C)CCC1C32OO4 (configuration not stated)
TGI: 76.4 µM
//
compound: CNC(=O)N1N[C@H](c2ccccc2)[C@@H]1c1ccccc1
TGI: 29.9 µM
//
compound: C[C@H]1CN(C2COC2)CCN1c1ccc(Nc2cc(-c3ccnc(N4CCn5c(cc6c5CC(C)(C)C6)C4=O)c3CO)cn(C)c2=O)nc1
TGI: > 100 µM
//
compound: N#Cc1cc2c(cc1Cl)Sc1nnc(Nc3cccc4ccccc34)n1S2(=O)=O
TGI: > 100 µM

Bench note: what TGI did c1ccc2c(CNCCN3CCNCC3)c3ccccc3c(CNCCN3CCNCC3)c2c1 show?
> 100 µM

Reported TGI, compound CCC(=O)C(CCN1CCC(N2C(=O)C(CCC#N)c3ccccc32)CC1)(c1ccccc1)c1ccccc1 (configuration not stated) : ____
23.6 µM

For O=C(Nc1ccc2[nH]c(C(=O)N3CC(CCl)c4ccc([N+](=O)[O-])cc43)cc2c1)c1cc2ccccc2o1 (configuration not stated) , what is its reported TGI?
> 1100 µM
